- Test system: MCF7 breast
- assay-method-text: NCI-60 one-dose screen, 48 h (100 = growth as untreated, 0 = no growth, -100 = all killed)
- cond: 10 µM
The panel holds about 83,000 compounds, 20% with a hit somewhere; the sample as a whole holds those more often.
# true (1) = growth below 20% (exclusive); false (0) = growth at/above 20%

Known results for compounds:
| compound | assayed-target | class-name |
| --- | --- | --- |
| C#CCn1cc(C=C2C(=O)NC(=O)NC2=O)c2cc(Cl)ccc21 | MCF7 breast | false (0) |
| CCn1c(SCC(=O)Nc2cc(C(F)(F)F)ccc2Cl)nc2ccccc2c1=O | MCF7 breast | false (0) |
| CCN(CC)CCCNc1ccnc2cc3ccccc3cc12 | MCF7 breast | false (0) |
| N#C/C(=C\c1c(-c2ccccc2)[nH]c2ccccc12)C(=O)c1ccccc1 | MCF7 breast | true (1) |
| CC(=O)Nc1nc2c(s1)CCc1c-2cn(S(=O)(=O)c2ccccc2)c1-c1ccccc1 | MCF7 breast | false (0) |

Dear colleague, could you confirm whether growth of Cc1ccc2c(n1)C(=O)C(Oc1ccc(Br)cc1)=CC2=O falls below 20%? Thanks.
false (0)

Do the same for CC[C@H](C)[C@@H](C(=O)OC)n1cc(CNC(=O)[C@@H](Cc2ccccc2)NC(=O)OCc2ccccc2)nn1 please
false (0)

###

- Test system: SN12C renal
- assay-method-text: NCI-60 one-dose screen, 48 h (100 = growth as untreated, 0 = no growth, -100 = all killed)
- cond: 10 µM unless noted
This is part of a sample that, as a whole, favours compounds with a hit. Of some 83,000 tested, about 20% had one in any assay.
Reported growth by item:
Give your result in % as a bare value.

| molecule | unit-spec | growth |
| --- | --- | --- |
| COc1nccc2cc3c(=O)n4c(cc5ccccc54)c(=O)n3c12 | % | 95.7 |
| O=C(Nc1ccc(N2CCNCC2)cc1)c1[nH]ncc1Nc1cc(C2CC2)ncn1 | % | 44.7 |
| Cc1cc(Nc2ccc(OCc3ccccc3)cc2)nc2cc(O)ccc12 | % | 78.2 |
| O=C(Nc1ccc(Cl)cc1F)c1cc(Br)ccc1O | % | 1.01 |

Which growth is reported for this molecule? O=c1oc2ccc(I)cc2c(=O)n1-c1ccc(Cl)cc1F
2.21

Then this molecule: O=C(Nc1ccc(F)cc1F)c1cc(Cl)ccc1O
2.94

One more molecule: CN1C(=O)N(C)C2Nn3c(s/c(=C\c4ccc(Cl)cc4Cl)c3=O)=NC21 (stereo not drawn)
75.6

Cool, now CC1=C(CC(=O)c2cccc([N+](=O)[O-])c2)C(=O)c2ccccc2C1=O
-36

###

- System: K-562 leukemia
- assay-method-text: NCI-60 one-dose screen, 48 h
- cond: 10 µM unless noted
The panel holds about 83,000 compounds, 20% with a hit somewhere; the sample as a whole holds those more often. Activity calls are given as the source filed them. The calls were made as follows: active = growth percent below 10; inactive = the rest.
Bench note: report the call from active, inactive

| molecule | class-name |
| --- | --- |
| Cc1ccc(CN2CCC(C(=O)Nc3ccc(-c4cc5ccccc5[nH]4)cc3)CC2)o1 | active |
| N#Cc1c(N)nc2c(c1N)C(c1ccc(F)cc1)c1ccc(N)cc1O2 (stereo not given) | inactive |
| CCOC(=O)C1(C(=O)OCC)N=C(c2ccccc2)C=C1c1ccccc1 | inactive |
| CCCN1C(=O)N(CCC)C2C1NN=c1s/c(=C3\C(=O)N(C(C)C)c4ccccc43)c(=O)n12 (stereo not given) | inactive |
| COc1cc2cc3c(=O)n4c(cc5cc(OC)ncc54)c(=O)n3c2cn1 | inactive |

GET /call?item= O=C(COc1cc(O)c2c(=O)cc(-c3ccccc3)oc2c1)Nc1ccccc1 returns the recorded outcome of this test.
inactive

Continue with O=C1/C=C/[C@@H](O)[C@@H]2C[C@@H](O)C[C@H]2/C=C/CCCCO1
inactive

Would you mind doing Nc1ccc(-n2c(=O)oc3ccc(Cl)cc3c2=O)c(Cl)c1 as well?
active

Thanks! And O=c1oc2ccc(-c3ccc(F)cc3F)cc2c(=O)n1-c1ccc(Cl)c(C(F)(F)F)c1 ?
inactive

And CC(=O)n1cc(-c2c[nH]c3ccccc23)c(-c2ccc(Cl)cc2)n1 ?
inactive

Now this one: O=C(c1ccccc1)N(C(=S)NCCc1ccc(Cl)cc1)c1ccc(Cl)cc1
active

Record: O=C(N=Nc1c(O)[nH]c2ccccc12)c1oc2ccccc2c1CN1CCN(c2ccccc2)CC1
inactive
